target: T1, NHERF2-2 (human, UniProt Q15599 150-230); assay: holdup assay; biotinylated PBM peptide saturating streptavidin resin (biotin resin as reference); tag-PDZ at 4 uM in crude E. coli lysate, 15 min, filtration, free tag-PDZ by capillary electrophoresis; singlicate; BI cut-off 0.20; BI converted into KD with the peptide concentration back-calculated from FP; settings: one partner purified
T1 construct: PDZ domain number 2 of human NHERF2; also called NHERF2 PDZ dom 2; source: E. coli, in crude cell lysate; not shown: His, N-terminal, kept
T1 sequence (Q15599 150-230): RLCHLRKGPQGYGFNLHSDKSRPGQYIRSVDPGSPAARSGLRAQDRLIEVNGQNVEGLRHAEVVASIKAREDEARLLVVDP
pKd: −log10 of the molar value. Where no end group is shown, it is not given here. The star is where a group is joined. Biotin = O=C1N[C@H]2[C@H](CS[C@H]2CCCCC(=O)*)N1; TTDS = NCCCOCCOCCOCCCNC(=O)CCC(=O)*
assay.endpoint: pKd

binder | assay.endpoint | measured.number
{Biotin-TTDS}-DEDQHTQITRV (peptide, UniProt P60484 393-403, looked up, also called K402R mutant; source: synthetic peptide (Chemical Peptide Synthesis Service of the IGBMC, Fmoc)) [PTEN_KR] | pKd | 4.68
{Biotin-TTDS}-PFDEDQHTQITKV (peptide, UniProt P60484 391-403, looked up, also called 13-mer PTEN peptide; extended wild-type peptide; source: synthetic peptide, bought: JPT Innovative Peptide Solutions (70%-80% purity)) [PTEN_13] | pKd | 3.90
